Target: KDR (human, UniProt P35968 20-1356)
Sequence (P35968 20-1356): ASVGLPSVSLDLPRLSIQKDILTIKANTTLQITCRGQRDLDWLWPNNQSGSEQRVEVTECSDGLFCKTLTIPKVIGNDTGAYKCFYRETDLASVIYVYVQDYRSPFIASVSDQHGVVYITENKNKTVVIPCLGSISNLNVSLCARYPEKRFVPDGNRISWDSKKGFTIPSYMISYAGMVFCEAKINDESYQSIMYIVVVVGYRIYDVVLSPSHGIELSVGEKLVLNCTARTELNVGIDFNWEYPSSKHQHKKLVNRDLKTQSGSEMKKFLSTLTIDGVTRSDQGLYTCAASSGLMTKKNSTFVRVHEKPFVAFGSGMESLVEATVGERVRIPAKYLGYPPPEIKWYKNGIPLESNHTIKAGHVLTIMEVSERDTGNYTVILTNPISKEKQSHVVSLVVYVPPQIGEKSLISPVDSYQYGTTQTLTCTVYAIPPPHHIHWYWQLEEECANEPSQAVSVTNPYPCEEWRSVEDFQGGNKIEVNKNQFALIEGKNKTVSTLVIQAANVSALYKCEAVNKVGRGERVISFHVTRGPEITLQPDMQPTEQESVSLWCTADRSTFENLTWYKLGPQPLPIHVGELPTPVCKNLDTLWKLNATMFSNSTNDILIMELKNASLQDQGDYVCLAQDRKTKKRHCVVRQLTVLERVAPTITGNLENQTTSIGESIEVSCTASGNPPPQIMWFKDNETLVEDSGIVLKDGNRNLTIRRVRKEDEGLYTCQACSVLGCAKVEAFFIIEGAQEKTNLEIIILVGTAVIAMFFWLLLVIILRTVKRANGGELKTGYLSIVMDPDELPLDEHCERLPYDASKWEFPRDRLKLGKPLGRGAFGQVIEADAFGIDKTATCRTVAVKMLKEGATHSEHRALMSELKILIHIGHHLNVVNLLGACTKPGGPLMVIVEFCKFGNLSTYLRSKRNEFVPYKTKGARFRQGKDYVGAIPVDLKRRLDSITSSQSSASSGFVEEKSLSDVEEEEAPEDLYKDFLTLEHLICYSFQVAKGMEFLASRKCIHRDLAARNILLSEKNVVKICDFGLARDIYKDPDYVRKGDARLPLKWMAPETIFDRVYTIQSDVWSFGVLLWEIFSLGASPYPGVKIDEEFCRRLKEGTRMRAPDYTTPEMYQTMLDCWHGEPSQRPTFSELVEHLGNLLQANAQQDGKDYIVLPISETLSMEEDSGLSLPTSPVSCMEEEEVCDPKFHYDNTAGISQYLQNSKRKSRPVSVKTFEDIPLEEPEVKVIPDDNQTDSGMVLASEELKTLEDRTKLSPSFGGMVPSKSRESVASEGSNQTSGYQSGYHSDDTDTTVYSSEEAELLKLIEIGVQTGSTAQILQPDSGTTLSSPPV
Assay: cell-based or functional assay
experimental-endpoint: Activity at 133 nM (% Inhibition), 1-hour Pre-incubation at 4° C., N = 1 (%)
Quick note: give the figure in %, leave out the unit.

Q: Item 29H3 (antibody, V domains shown) VH: QVQLVQSGAEVKKPGASVKVSCKASGYTFTSYDINWVRQATGQGLEWMGWMNPNSGKTGYAQKFQGRVTMTRNTSINTAYMELSSLRSEDTAVYYCARGGYSNLGWFDPWGQGTLVTVSS VL: DIQMTQSPSSVSASVGDRVTITCRASQGISSWLVWYHQKPGKAPKLLIYGASSLQSGVPSRFSGSGSGTDFTLTISSLQPEDFATYYCQQANNFPFTFGPGTKVDIK has what recorded Activity at 133 nM (% Inhibition), 1-hour Pre-incubation at 4° C., N = 1?
Ans: 45

Q: Then this binder: 21H6 (antibody, V domains shown) VH: QVQLVESGGGLVKPGGSLRLSCAASGFTFSDYYMSWIRQAPGKGLEWVSYISNSGITIYYADSVKGRFTISRDNAKNSLYLQMNSLRAGDTAVYYCAREEWYSSRWYRNFDYWGQGTLVTVSS VL: DIQMTQFSSSLSASVGDRVTITCRASQSISRYLNWYQQKPGKAPKLLIYAASSLQSGVPSRFNGSGSGTDFTLTISSLQPEDFATYYCQQSYSAPLTFGGGTKVEIK
Ans: 74
